AC50 values by entry
- targetUnderTest: Prostaglandin G/H synthase 1 (Homo sapiens, UniProt P23219); note: assay procedure not described here
- Sequence (P23219 whole entry): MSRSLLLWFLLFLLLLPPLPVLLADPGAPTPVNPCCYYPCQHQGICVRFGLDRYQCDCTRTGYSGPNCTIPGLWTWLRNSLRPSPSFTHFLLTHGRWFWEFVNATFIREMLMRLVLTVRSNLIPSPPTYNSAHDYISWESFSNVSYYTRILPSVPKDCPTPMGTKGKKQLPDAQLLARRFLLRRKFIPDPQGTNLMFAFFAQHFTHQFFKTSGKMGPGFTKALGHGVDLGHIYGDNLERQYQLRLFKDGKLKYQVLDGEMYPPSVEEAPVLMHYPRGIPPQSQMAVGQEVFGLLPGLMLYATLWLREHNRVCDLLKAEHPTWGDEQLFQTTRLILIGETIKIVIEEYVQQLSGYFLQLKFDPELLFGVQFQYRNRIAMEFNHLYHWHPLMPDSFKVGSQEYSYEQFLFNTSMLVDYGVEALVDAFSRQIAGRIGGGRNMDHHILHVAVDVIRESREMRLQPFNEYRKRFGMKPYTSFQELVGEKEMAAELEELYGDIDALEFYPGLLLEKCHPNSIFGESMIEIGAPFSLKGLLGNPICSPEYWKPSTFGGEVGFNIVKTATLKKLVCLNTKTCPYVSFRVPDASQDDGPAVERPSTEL
- Assay type: functional

| compound | result |
| --- | --- |
| O=C(NC[C@H]1CN(c2ccc(N3CCOCC3=O)cc2)C(=O)O1)c1ccc(Cl)s1 | > 30 µM |
| NCc1ccccc1CC(=O)N[C@@H]1C(=O)N2C(C(=O)O)=C(CSc3nnnn3CC(=O)O)CS[C@H]12 [CEFORANIDE] | > 30 µM |
| NS(=O)(=O)c1cc2c(cc1Cl)NC(CC1CCCC1)NS2(=O)=O (configuration not stated) [CYCLOPENTHIAZIDE] | > 30 µM |
| CCC(=O)O[C@H]1[C@H](O[C@@H]2[C@@H](C)[C@H](O[C@H]3C[C@@](C)(OC)[C@@H](O)[C@H](C)O3)[C@@H](C)C(=O)O[C@H](CC)[C@@](C)(O)[C@H](O)[C@@H](C)C(=O)[C@H](C)C[C@@]2(C)O)O[C@H](C)C[C@@H]1N(C)C [ERYTHROMYCIN PROPIONATE] | > 10 µM |
| CC1(C)O[C@@H]2C[C@H]3[C@@H]4C[C@H](F)C5=CC(=O)CC[C@]5(C)[C@H]4[C@@H](O)C[C@]3(C)[C@]2(C(=O)CO)O1 [FLURANDRENOLIDE] | > 30 µM |
| C[C@@H]1O[C@@H](OC[C@H]2O[C@@H](Oc3c(-c4ccc(OCCO)c(OCCO)c4)oc4cc(OCCO)cc(O)c4c3=O)[C@H](O)[C@@H](O)[C@@H]2O)[C@H](O)[C@H](O)[C@H]1O | > 30 µM |
| COc1cc2c(cc1OC)C(=O)C(CC1CCN(Cc3ccccc3)CC1)C2 (configuration not stated) | > 30 µM |
| COc1cc2c(cc1OC)[C@H]1C[C@@H](OC(=O)[C@@H](N)C(C)C)[C@H](CC(C)C)CN1CC2 | 5.44 µM |

*Q* Entry under review: C[N+]1(C)[C@@H]2C[C@@H](OC(=O)[C@H](CO)c3ccccc3)C[C@H]1[C@@H]1O[C@@H]12 . Reported AC50?
*A* > 30 µM

*Q* Entry under review: Oc1ncnc2[nH]ncc12 . Reported AC50?
*A* > 30 µM

*Q* Entry under review: O=C1[C@H](CC[C@H](O)c2ccc(F)cc2)[C@@H](c2ccc(O)cc2)N1c1ccc(F)cc1 . Reported AC50?
*A* 6.72 µM

*Q* Entry under review: Oc1c(I)cc(I)c2cccnc12 . Reported AC50?
*A* > 30 µM
